meta.source: patent US7205275

# system_tested: T1, human Ang-2 (human, UniProt O15123)
# T1 chain: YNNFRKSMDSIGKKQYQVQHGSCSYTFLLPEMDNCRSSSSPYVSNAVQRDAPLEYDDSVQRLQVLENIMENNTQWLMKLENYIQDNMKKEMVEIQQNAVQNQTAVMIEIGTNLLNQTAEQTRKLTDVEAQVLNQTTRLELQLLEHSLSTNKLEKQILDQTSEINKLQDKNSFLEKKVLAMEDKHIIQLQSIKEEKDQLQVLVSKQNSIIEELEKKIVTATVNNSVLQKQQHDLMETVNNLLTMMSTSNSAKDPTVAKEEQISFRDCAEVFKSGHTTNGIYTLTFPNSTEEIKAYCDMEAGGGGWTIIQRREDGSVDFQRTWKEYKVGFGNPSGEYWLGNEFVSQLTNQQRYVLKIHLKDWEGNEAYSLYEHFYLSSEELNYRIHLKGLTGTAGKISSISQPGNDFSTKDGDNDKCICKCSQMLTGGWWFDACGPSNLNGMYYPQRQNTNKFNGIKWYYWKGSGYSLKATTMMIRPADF
# procedure_summary: competition ELISA vs Tie-2
Primed or numbered codes have the meaning given here. Where no end group is shown, it is not given here. [ ]: non-standard residue; d: D form. Fc(4) = non-antigen-binding fragment of an antibody (from proteolytic digestion of a whole antibody); Fc = immunoglobulin Fc domain fused to the peptide (peptibody); Fc(7) = Fc domain, peptide fused N- or C-terminal to it
measure_name: IC50 (nM)

binder	IC50, nM
M[Fc]GGGGGAQPVNQEDCEWDPWTCEHMPPMLE (not fully specified; cysteine pairing not given here) [Con4-39 (C)]	0.3
M[Fc(4)]GGGGGAQQHWQEECEWDPWTCDHMPSKLE (not fully specified; cysteine pairing not given here) [Con4-46 (C)]	0.26
M[Fc]GGGGGAQVPRQKDCEWDPWTCEHMYVGLE (not fully specified; cysteine pairing not given here) [Con4-35 (C)]	0.18
M[Fc(7)]GGGGGAQRAPQEDCEWDPWTCAHMDIKLE (not fully specified (bridges); cysteine pairing not given here) [Con4-25 (C)]	0.31
M[Fc(7)]GGGGGAQWVNEVVCEWDPWTCNHWDTPLE (not fully specified (bridges); cysteine pairing not given here) [Con4-18 (C)]	4.8

(a) M[Fc(7)]GGGGGAQDKILEECQWDPWTCQFFYGALE (not fully specified (bridges); cysteine pairing not given here) [Con4-3 (C)]
(b) M[Fc(4)]GGGGGAQLRHQEGCEWDPWTCEHMFDWLE (not fully specified; cysteine pairing not given here) [Con4-42 (C)]
(c) M[Fc(4)]GGGGGAQTTIGSMCEWDPWTCAHMQGGLE (not fully specified (bridges); cysteine pairing not given here) [Con4-C1 (C)]
Q: Sort (3 binders) by IC50: min first. Rank them, then answer with their labels in that order.
Result: b, c, a

(P) M[Fc(4)]GGGGGAQNVRQEKCEWDPWTCEHMPVRLE (not fully specified; cysteine pairing not given here) [Con4-41 (C)]
(Q) M[Fc(7)]GGGGGAQTQGLHQCEWDPWTCKVLWPSLE (not fully specified (bridges); cysteine pairing not given here) [Con4-10 (C)]
Q: Compare the recorded IC50 of P and Q ; state which is larger. Record your answer as the label of the chosen record.
Result: Q

(P) M[Fc(7)]GGGGGAQTWPQDKCEWDPWTCEHMGSTLE (not fully specified (bridges); cysteine pairing not given here) [Con4-27 (C)]
(Q) M[Fc(7)]GGGGGAQVLGGQGCQWDPWTCSHLEDGLE (not fully specified (bridges); cysteine pairing not given here) [Con4-1 (C)]
Q: // compare: P vs Q , metric IC50, want the smaller Record your answer as the label of the chosen record.
Result: P
(P: 0.22 nM, Q: 2.47 nM)
